Cited source: patent US9303017B2

Assay system: human α4β2 nAChRs (Homo sapiens (Human), UniProt P17787+P43681)
Sequence (P43681 29-627): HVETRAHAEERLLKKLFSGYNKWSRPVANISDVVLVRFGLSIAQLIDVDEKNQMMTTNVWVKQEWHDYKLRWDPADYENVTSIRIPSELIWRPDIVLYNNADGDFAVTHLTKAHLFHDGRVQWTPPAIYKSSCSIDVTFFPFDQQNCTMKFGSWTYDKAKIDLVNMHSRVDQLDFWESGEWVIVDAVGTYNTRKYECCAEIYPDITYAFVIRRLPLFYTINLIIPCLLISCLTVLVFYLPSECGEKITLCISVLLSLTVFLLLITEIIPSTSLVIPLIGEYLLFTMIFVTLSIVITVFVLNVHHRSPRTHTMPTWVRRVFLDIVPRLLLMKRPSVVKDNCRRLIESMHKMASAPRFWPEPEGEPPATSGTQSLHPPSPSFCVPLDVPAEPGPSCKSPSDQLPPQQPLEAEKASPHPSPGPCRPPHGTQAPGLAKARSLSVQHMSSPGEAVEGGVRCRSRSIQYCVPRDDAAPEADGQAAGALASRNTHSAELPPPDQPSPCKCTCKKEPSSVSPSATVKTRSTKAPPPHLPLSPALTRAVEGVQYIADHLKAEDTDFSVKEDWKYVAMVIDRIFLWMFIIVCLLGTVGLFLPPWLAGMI
Sequence (P17787 26-502): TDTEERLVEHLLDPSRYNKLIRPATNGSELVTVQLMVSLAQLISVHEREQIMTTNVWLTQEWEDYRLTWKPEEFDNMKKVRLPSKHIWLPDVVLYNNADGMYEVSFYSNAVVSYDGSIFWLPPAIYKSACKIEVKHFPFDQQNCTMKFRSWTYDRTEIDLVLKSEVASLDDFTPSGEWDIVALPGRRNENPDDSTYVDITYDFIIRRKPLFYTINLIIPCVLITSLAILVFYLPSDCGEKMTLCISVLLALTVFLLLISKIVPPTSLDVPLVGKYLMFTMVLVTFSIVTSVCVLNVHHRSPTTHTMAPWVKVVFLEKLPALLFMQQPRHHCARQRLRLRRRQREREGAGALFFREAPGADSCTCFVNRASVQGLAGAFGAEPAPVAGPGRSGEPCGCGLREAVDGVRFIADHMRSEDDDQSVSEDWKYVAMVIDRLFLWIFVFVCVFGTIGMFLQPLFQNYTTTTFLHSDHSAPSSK
Assay explanation: 86Rb+ efflux assay (activation and desensitization), α4β2
Type: cell-based
Measurement parameters: desensitization; 10 min pre-incubation before 100 μM nicotine; Table 2; read-out: IC50(10′) α4β2 nAChRs
log10(IC50) overview
Quantity name: log10(IC50) (log10 of the value in nM)

INSERT INTO assay_data (compound, value) VALUES
  ('OCCCCC#Cc1cncc(OC[C@@H]2CCN2)c1 [Sazetidine-A, reference compound]', 1.08),
  ('Cc1ncc(C#CCCCCO)cc1OC[C@@H]1CCN1 [(S)-17]', 1.71),
  ('CCCCC#Cc1cnc(C)c(OC[C@@H]2CCCN2)c1 [(S)-16]', 3.20),
  ('Cc1ncc(C#CCCCCCl)cc1OC[C@@H]1CCN1 [(S)-21]', 2.41),
  ('CCCCC#Cc1cnc(C)c(OC[C@@H]2CCN2)c1 [(S)-15]', 2.26),
  ('Cc1ncc(C#CC2CC2)cc1OC[C@@H]1CCN1 [(S)-27]', 2.04),
  ('Cc1ncc(C#CCCCCF)cc1OC[C@@H]1CCN1 [(S)-22]', 2.11);
